B1: Pistol ribozyme (parent)
chain: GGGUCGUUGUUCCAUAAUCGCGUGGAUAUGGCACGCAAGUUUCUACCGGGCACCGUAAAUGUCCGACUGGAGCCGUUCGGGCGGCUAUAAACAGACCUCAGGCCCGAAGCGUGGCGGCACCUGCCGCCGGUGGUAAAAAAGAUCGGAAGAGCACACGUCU

variants of: B1; assay: aptazyme ON/OFF ratio, guanine; higher = stronger switching; co-transcriptional cleavage with and without guanine
measured_metric: aptazyme ON/OFF ratio
Give bare numbers.

Example entries and their recorded answers appear below.
U7A U8A G9U U10A U11G C13U: 1.19
U7G U8A G9C U10G U11C C12A C13U: 1.05
U7C U8C G9U U10A U11A C13U: 1.22
U7G G9A U10G U11C C13G: 1.11
U7A U8A G9C U10G U11C C12U: 1.13
U7C G9A U11G C12G C13U: 1.09
U8C G9C U10G C12U C13A: 1.12
U8C U11G C12U C13G: 1.07
U7A U8G G9C U11A: 2.34
U8A G9C C12A C13A: 1.24

Hello, I would appreciate it if you could give aptazyme ON/OFF ratio for each entry below.
1. U7A U8A U10G U11G C12A C13A
2. U7C G9C U10C U11A C12A C13U
3. U7G U8C U10A U11G C12A

1.21
1.05
1.1

Hello, I would appreciate it if you could give aptazyme ON/OFF ratio for each entry below.
1. U7G U8C G9C U10C U11G C13U
2. U7A C12A C13U
3. U8C G9C U11C C12U C13A
4. U7G U8A G9A U10G U11A C12U C13G
5. U7C U8G G9A U10A U11G C12G C13A
6. U8G G9A U10C C12U C13U

[1.07, 1.22, 1.05, 1.06, 1.19, 1.11]

Hello, I would appreciate it if you could give aptazyme ON/OFF ratio for each entry below.
1. U7C G9A U11C C12U C13U
2. U7G U8G U10C U11C C13A
3. U7C G9A U10C U11G C13G

[1.11, 1.07, 1.22]
